test system: Atopobium minutum; test: Antimicrobial activity against Atopobium minutum by Wadsworth agar dilution method; type: functional
MIC90 values by entry
Expressed in µg/mL, but write only the number.

Exercise: Given the entry `CN[C@H](CC(C)C)C(=O)N[C@H]1C(=O)N[C@@H](CC(N)=O)C(=O)N[C@H]2C(=O)N[C@H]3C(=O)N[C@H](C(=O)N[C@H](C(=O)O)c4cc(O)cc(O)c4-c4cc3ccc4O)[C@H](O)c3ccc(c(Cl)c3)Oc3cc2cc(c3O[C@@H]2O[C@H](CO)[C@@H](O)[C@H](O)[C@H]2O[C@H]2C[C@](C)(N)[C@H](O)[C@H](C)O2)Oc2ccc(cc2Cl)[C@H]1O` , report its measured MIC90.
Key: 64

Exercise: Also check `NC[C@@H]1O[C@H](O[C@H]2[C@@H](O)[C@H](O[C@@H]3[C@@H](O)[C@H](N)C[C@H](N)[C@H]3O[C@H]3O[C@H](CN)[C@@H](O)[C@H](O)[C@H]3N)O[C@@H]2CO)[C@H](N)[C@@H](O)[C@@H]1O`
Key: 1020

Exercise: Also check CC(=O)Oc1ccccc1C(=O)Nc1ncc([N+](=O)[O-])s1 [NITAZOXANIDE]
Key: 32

* * *

tested on: Coprobacillus cateniformis; assay: Antimicrobial activity against Coprobacillus cateniformis by Wadsworth agar dilution method; format: functional
MEASURED PROPERTY: MIC50 (µg/mL)
Expressed in µg/mL, but write only the number.

INSERT INTO measurements (molecule, measured_target, unit_name, quantitative_readout) VALUES
  ('CN[C@H](CC(C)C)C(=O)N[C@H]1C(=O)N[C@@H](CC(N)=O)C(=O)N[C@H]2C(=O)N[C@H]3C(=O)N[C@H](C(=O)N[C@H](C(=O)O)c4cc(O)cc(O)c4-c4cc3ccc4O)[C@H](O)c3ccc(c(Cl)c3)Oc3cc2cc(c3O[C@@H]2O[C@H](CO)[C@@H](O)[C@H](O)[C@H]2O[C@H]2C[C@](C)(N)[C@H](O)[C@H](C)O2)Oc2ccc(cc2Cl)[C@H]1O', 'Coprobacillus cateniformis', 'µg/mL', 1);

Exercise: Given the entry CC(=O)Oc1ccccc1C(=O)Nc1ncc([N+](=O)[O-])s1 [NITAZOXANIDE] , report its measured MIC50.
Key: 2

Exercise: Also check `CO[C@H]1/C=C/O[C@@]2(C)Oc3c(C)c(O)c4c(O)c(c5c(nc6cc(C)ccn65)c4c3C2=O)NC(=O)/C(C)=C\C=C\[C@H](C)[C@H](O)[C@@H](C)[C@@H](O)[C@@H](C)[C@H](OC(C)=O)[C@@H]1C`
Key: 0.5

Exercise: Also check `NC[C@@H]1O[C@H](O[C@H]2[C@@H](O)[C@H](O[C@@H]3[C@@H](O)[C@H](N)C[C@H](N)[C@H]3O[C@H]3O[C@H](CN)[C@@H](O)[C@H](O)[C@H]3N)O[C@@H]2CO)[C@H](N)[C@@H](O)[C@@H]1O`
Key: 128

* * *

MIC90 values by entry
test system: Ruminococcus obeum; experiment: Antimicrobial activity against Ruminococcus obeum by Wadsworth agar dilution method; format: functional; conditions: Blautia obeum
Expressed in µg/mL, but write only the number.

# annotated cases, reported MIC90 shown
INSERT INTO measurements (compound, unit_name, quantitative_readout) VALUES
  ('CC(=O)Oc1ccccc1C(=O)Nc1ncc([N+](=O)[O-])s1 [NITAZOXANIDE]', 'µg/mL', 1),
  ('CN[C@H](CC(C)C)C(=O)N[C@H]1C(=O)N[C@@H](CC(N)=O)C(=O)N[C@H]2C(=O)N[C@H]3C(=O)N[C@H](C(=O)N[C@H](C(=O)O)c4cc(O)cc(O)c4-c4cc3ccc4O)[C@H](O)c3ccc(c(Cl)c3)Oc3cc2cc(c3O[C@@H]2O[C@H](CO)[C@@H](O)[C@H](O)[C@H]2O[C@H]2C[C@](C)(N)[C@H](O)[C@H](C)O2)Oc2ccc(cc2Cl)[C@H]1O [VANCOMYCIN]', 'µg/mL', 1),
  ('CO[C@H]1/C=C/O[C@@]2(C)Oc3c(C)c(O)c4c(O)c(c5c(nc6cc(C)ccn65)c4c3C2=O)NC(=O)/C(C)=C\C=C\[C@H](C)[C@H](O)[C@@H](C)[C@@H](O)[C@@H](C)[C@H](OC(C)=O)[C@@H]1C [RIFAXIMIN]', 'µg/mL', 4);

Exercise: Given the entry NC[C@@H]1O[C@H](O[C@H]2[C@@H](O)[C@H](O[C@@H]3[C@@H](O)[C@H](N)C[C@H](N)[C@H]3O[C@H]3O[C@H](CN)[C@@H](O)[C@H](O)[C@H]3N)O[C@@H]2CO)[C@H](N)[C@@H](O)[C@@H]1O [FRAMYCETIN] , report its measured MIC90.
Key: 512

* * *

system: Cutibacterium acnes; experiment: Antimicrobial activity against Propionibacterium acnes by Wadsworth agar dilution method; assay type: functional
MIC90 values by entry
Expressed in µg/mL, but write only the number.

# annotated cases, reported MIC90 shown
INSERT INTO results (compound, measured_property, unit_name, quantitative_readout) VALUES
  ('CN[C@H](CC(C)C)C(=O)N[C@H]1C(=O)N[C@@H](CC(N)=O)C(=O)N[C@H]2C(=O)N[C@H]3C(=O)N[C@H](C(=O)N[C@H](C(=O)O)c4cc(O)cc(O)c4-c4cc3ccc4O)[C@H](O)c3ccc(c(Cl)c3)Oc3cc2cc(c3O[C@@H]2O[C@H](CO)[C@@H](O)[C@H](O)[C@H]2O[C@H]2C[C@](C)(N)[C@H](O)[C@H](C)O2)Oc2ccc(cc2Cl)[C@H]1O [VANCOMYCIN]', 'MIC90', 'µg/mL', 64),
  ('NC[C@@H]1O[C@H](O[C@H]2[C@@H](O)[C@H](O[C@@H]3[C@@H](O)[C@H](N)C[C@H](N)[C@H]3O[C@H]3O[C@H](CN)[C@@H](O)[C@H](O)[C@H]3N)O[C@@H]2CO)[C@H](N)[C@@H](O)[C@@H]1O [FRAMYCETIN]', 'MIC90', 'µg/mL', 1020);

Field: next compound
Exercise: Given the entry CC(=O)Oc1ccccc1C(=O)Nc1ncc([N+](=O)[O-])s1 [NITAZOXANIDE] , report its measured MIC90.
Key: 32

* * *

tested on: Parabacteroides goldsteinii; experiment: Antimicrobial activity against Parabacteroides goldsteinii by Wadsworth agar dilution method; type: functional
MEASURED PROPERTY: MIC90 (µg/mL)
Expressed in µg/mL, but write only the number.

Exercise: Given the entry CC(=O)Oc1ccccc1C(=O)Nc1ncc([N+](=O)[O-])s1 [NITAZOXANIDE] , report its measured MIC90.
Key: 4

Exercise: Also check CN[C@H](CC(C)C)C(=O)N[C@H]1C(=O)N[C@@H](CC(N)=O)C(=O)N[C@H]2C(=O)N[C@H]3C(=O)N[C@H](C(=O)N[C@H](C(=O)O)c4cc(O)cc(O)c4-c4cc3ccc4O)[C@H](O)c3ccc(c(Cl)c3)Oc3cc2cc(c3O[C@@H]2O[C@H](CO)[C@@H](O)[C@H](O)[C@H]2O[C@H]2C[C@](C)(N)[C@H](O)[C@H](C)O2)Oc2ccc(cc2Cl)[C@H]1O [VANCOMYCIN]
Key: 128

Exercise: Also check CO[C@H]1/C=C/O[C@@]2(C)Oc3c(C)c(O)c4c(O)c(c5c(nc6cc(C)ccn65)c4c3C2=O)NC(=O)/C(C)=C\C=C\[C@H](C)[C@H](O)[C@@H](C)[C@@H](O)[C@@H](C)[C@H](OC(C)=O)[C@@H]1C [RIFAXIMIN]
Key: 1

* * *

tested on: Fusobacterium mortiferum; test: Antimicrobial activity against Clostridium rectum by Wadsworth agar dilution method; assay type: functional
MEASURED PROPERTY: MIC50 (µg/mL)
Expressed in µg/mL, but write only the number.

# annotated cases, reported MIC50 shown
INSERT INTO results (compound, quantitative_readout) VALUES
  ('CO[C@H]1/C=C/O[C@@]2(C)Oc3c(C)c(O)c4c(O)c(c5c(nc6cc(C)ccn65)c4c3C2=O)NC(=O)/C(C)=C\C=C\[C@H](C)[C@H](O)[C@@H](C)[C@@H](O)[C@@H](C)[C@H](OC(C)=O)[C@@H]1C [RIFAXIMIN]', 0.25),
  ('NC[C@@H]1O[C@H](O[C@H]2[C@@H](O)[C@H](O[C@@H]3[C@@H](O)[C@H](N)C[C@H](N)[C@H]3O[C@H]3O[C@H](CN)[C@@H](O)[C@H](O)[C@H]3N)O[C@@H]2CO)[C@H](N)[C@@H](O)[C@@H]1O [FRAMYCETIN]', 256),
  ('CN[C@H](CC(C)C)C(=O)N[C@H]1C(=O)N[C@@H](CC(N)=O)C(=O)N[C@H]2C(=O)N[C@H]3C(=O)N[C@H](C(=O)N[C@H](C(=O)O)c4cc(O)cc(O)c4-c4cc3ccc4O)[C@H](O)c3ccc(c(Cl)c3)Oc3cc2cc(c3O[C@@H]2O[C@H](CO)[C@@H](O)[C@H](O)[C@H]2O[C@H]2C[C@](C)(N)[C@H](O)[C@H](C)O2)Oc2ccc(cc2Cl)[C@H]1O [VANCOMYCIN]', 1);

Field: next compound
Exercise: Given the entry CC(=O)Oc1ccccc1C(=O)Nc1ncc([N+](=O)[O-])s1 [NITAZOXANIDE] , report its measured MIC50.
Key: 0.5
